assay_target: FAD-linked sulfhydryl oxidase ALR (Homo sapiens)
Sequence (P55789 whole entry): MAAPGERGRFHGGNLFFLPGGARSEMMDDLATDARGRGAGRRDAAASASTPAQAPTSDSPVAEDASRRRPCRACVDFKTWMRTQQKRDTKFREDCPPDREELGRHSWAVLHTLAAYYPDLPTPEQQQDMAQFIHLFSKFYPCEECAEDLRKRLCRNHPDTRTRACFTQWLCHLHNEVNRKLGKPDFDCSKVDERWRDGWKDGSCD
assay_name: ALR-catalysed DTT oxidation blockers – biochemical, H2O2 detection, luminescence, cherry-pick, dose response (AID 493248)
The source made the active and inactive calls.
property_name: AC50

The compound listed as `O=C(Nc1ccc(O)cc1)c1ccc(C(=O)c2ccccc2)o1` has a reported AC50 of 2.25 µM (active)

# compound CC(CN(C)C)CN1c2ccccc2Sc2ccccc21 (configuration not stated) ; its AC50 = 1.25 µM (active)

Others:
The recorded AC50 for entry CC(NC(=O)c1cccc(N(C)C)c1)c1ccc(-n2ccnc2)cc1 (configuration not stated) equals 9.59 µM (active)

Lab note: `C/C(=N/NS(=O)(=O)c1ccc(Br)cc1)c1ccc(C)o1` gave AC50 of 15.4 µM (active)

Memo: `CCc1cc(C(=O)c2ccc(OC)cc2)c(NC(=O)CC(C)(C)CC(=O)O)s1` , reported AC50: 4.26 µM (active)

AC50 measured on `O=C(O)c1ccccc1NC(=O)c1ccccc1Nc1ccccc1` = 9.47 µM (active)

AC50 measured on `CCN(CC)c1ccc(NC(=O)CN2CCN(CC(=O)Nc3ccccc3F)CC2)cc1` = 1.18 µM (active)

----------
assay_target: Polyadenylate-binding protein 1 (Homo sapiens)
Sequence (P11940 whole entry): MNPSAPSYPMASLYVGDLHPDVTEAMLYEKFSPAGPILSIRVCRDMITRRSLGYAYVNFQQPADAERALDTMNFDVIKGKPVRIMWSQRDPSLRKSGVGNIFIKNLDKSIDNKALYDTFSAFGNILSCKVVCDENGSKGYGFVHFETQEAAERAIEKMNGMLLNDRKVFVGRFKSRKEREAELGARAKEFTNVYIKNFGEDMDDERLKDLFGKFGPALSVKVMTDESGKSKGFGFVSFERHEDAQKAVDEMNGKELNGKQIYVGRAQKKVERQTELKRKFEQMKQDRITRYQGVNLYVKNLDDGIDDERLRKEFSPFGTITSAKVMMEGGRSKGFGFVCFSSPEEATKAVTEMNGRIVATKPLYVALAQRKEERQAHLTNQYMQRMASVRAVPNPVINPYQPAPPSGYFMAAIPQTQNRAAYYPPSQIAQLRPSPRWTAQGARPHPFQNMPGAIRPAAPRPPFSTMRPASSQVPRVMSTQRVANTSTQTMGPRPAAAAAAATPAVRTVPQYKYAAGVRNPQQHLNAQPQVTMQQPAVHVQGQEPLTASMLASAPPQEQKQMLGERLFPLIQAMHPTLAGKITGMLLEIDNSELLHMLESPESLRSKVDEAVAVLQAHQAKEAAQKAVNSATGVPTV
assay_name: MLLE binding blockers, Cy5 peptide tracer – biochemical, fluorescence polarization, Cy5-PAM2 peptide, secondary, miRNA deadenylation inhibitor project, dose response (AID 602260)
Type: functional
condition_info: read-out: IC50_Mean
Calls of active or inactive are those of the source.
Documented IC50 across a set of molecules

Please review the entries below; each comes with its answer.
Kindly note the recorded IC50 for `Cc1cc(C)c2c(N)c(C(=O)NCC3CCCCC3)sc2n1` , which is > 66 µM (inactive)

# IC50 (molecule: `O=C(NC(=S)Nc1ccccc1Cl)c1cncc(Br)c1` ) is > 66 µM (inactive)

Data point: `COc1ccc2nc(-c3ccco3)c(-c3ccco3)nc2c1` ; IC50 = > 66 µM (inactive)

Further cases:
For `CCN(CC)CCSC(=O)C(c1ccccc1)c1ccccc1` the molecule record lists IC50 as > 66 µM (inactive)

// recorded IC50 for `COc1cccc(/C=C2\C(=O)C(=O)c3ccccc32)c1` : > 66 µM (inactive)

The value of IC50 measured for the molecule `CC[C@]1(C(=O)OC)[C@H]2C(=O)N(Cc3ccccc3)C(=O)[C@H]2[C@H]2CN=C(SCC(=O)c3ccccc3)N21` turned out to be > 66 µM (inactive)

----------
So I've got AC50 readings for Cytochrome P450 1A2 (Homo sapiens, UniProt P05177), take a look.

Worked examples, 5 compounds total:
Observed AC50, Cytochrome P450 1A2 (Homo sapiens, UniProt P05177), `COc1ccccc1NC(=O)COC(=O)c1ccc(S(=O)(=O)NCc2ccco2)cc1` : 12.6 µM (inconclusive)

Form field AC50 for item `CCN(CC)CCOC(=O)[C@@H](Cc1cccc2ccccc12)C[C@@H]1CCCO1` on Cytochrome P450 1A2 (Homo sapiens, UniProt P05177): 10 µM (inconclusive)

Per the reported Cytochrome P450 1A2 (Homo sapiens, UniProt P05177) data, `CCn1nc2cc(C(=O)NCC34CC5CC(CC(C5)C3)C4)ccc2c1OC` has AC50 of 12.6 µM (inconclusive)

Tested on Cytochrome P450 1A2 (Homo sapiens, UniProt P05177), the item CC(C)c1ccc(CN(C(=O)C2COc3ccccc3O2)C2CCS(=O)(=O)C2)cc1 (centres undefined) showed AC50 equal to 25.1 µM (inconclusive)

Reported Cytochrome P450 1A2 (Homo sapiens, UniProt P05177) AC50 for item `O=C(O)[C@H]1CN[C@H](C(=O)O)C1` was 31.6 µM (inconclusive)

More entries:
Observed AC50 on Cytochrome P450 1A2 (Homo sapiens, UniProt P05177), entry `COc1[nH]nc2nncnc12` , equals 6.31 µM (inconclusive)

For `CCCc1c(OCCCOc2ccc(OCC(=O)O)cc2)ccc(C(C)=O)c1O` on Cytochrome P450 1A2 (Homo sapiens, UniProt P05177), measured AC50 was 31.6 µM (inconclusive)

Reported Cytochrome P450 1A2 (Homo sapiens, UniProt P05177) AC50 for item CC(=O)C1C(c2ccccc2OC(F)F)NC(=O)NC1(O)C(F)(F)F (centres undefined) was 5.01 µM (inconclusive)

AC50 value, target or system Cytochrome P450 1A2 (Homo sapiens, UniProt P05177), for Cc1ccc(C2=NN(S(C)(=O)=O)C(c3cccs3)C2)cc1 (centres undefined) : 31.6 µM (inconclusive)

Note to self: AC50 of CCCOc1ccc(N2C(=O)CC(SC(=N)N/N=C(\C)c3cccs3)C2=O)cc1 (centres undefined) with Cytochrome P450 1A2 (Homo sapiens, UniProt P05177) was 15.8 µM (inconclusive)

For the compound COc1ccc(C2N(c3ccccn3)C(=O)C3CCCN32)c(OC)c1 (centres undefined) , the measured AC50 on Cytochrome P450 1A2 (Homo sapiens, UniProt P05177) was 0.00631 µM (inconclusive)

Entry source: ChEMBL document CHEMBL1201862
